# TARGET_ENTITY: T1, rhBMP-2 (His-tagged, refolded, E. coli-expressed) (human, UniProt P12643 283-396)
# T1 sequence: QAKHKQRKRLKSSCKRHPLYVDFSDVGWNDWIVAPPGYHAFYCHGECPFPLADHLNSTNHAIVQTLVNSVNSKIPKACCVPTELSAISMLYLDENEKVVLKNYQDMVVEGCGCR
# EXPERIMENT_SUMMARY: ELONA; immobilized rhBMP-2, 100 ng/well; EMSA: 20 mM HEPES pH 7.4, 150 mM NaCl, 2 mM MgCl2, 2 mM CaCl2, 2 mM KCl, 37 C 1 h, 12% native PAGE at 4 C; ELONA: His-rhBMP-2 on HisSorb plate, biotinylated DNA 1 h at 37 C, PBST washes
# ASSAY_CONTEXT: protein: recombinant; tags: His tag (pET-15b NdeI/BamHI); chain copies: 2; label: biotin (ELONA); none in EMSA; single strand; predicted hairpin-like
pKd: −log10 of the molar value.

BINDER | pKd
BA1 (ssDNA) DNA: CGTACGGTCGACGCTAGCAAAACAAAAAAAAATAAAAAAAAAAAGACTAAAGACACGTGGAGCTCGGATCC | 8.16
